Where these numbers come from: the supplement of paper PMC10724198

Tested on: Saccharomyces cerevisiae
Assay: protein stability index of tFT-peptide fusion (C-terminal peptide) (PSI (0-1 scale)); higher = more stable (slower turnover)
Settings: genetic background: wild type; temperature: 30 C
measurement-type: protein stability index

INSERT INTO measurements (query_sequence, measurement_type, recorded_result) VALUES
  ('RTKGQKWFDGLM [NAT2 C-terminal 12 aa]', 'protein stability index', 0.698),
  ('GCDLDISYAKRL [HRB1 C-terminal 12 aa]', 'protein stability index', 0.695),
  ('QTVSTYTKVTPK [NCE103 C-terminal 12 aa]', 'protein stability index', 0.702),
  ('IEELLAGIRMSI [BIT61 C-terminal 12 aa]', 'protein stability index', 0.706),
  ('DAFTDPRQYHLT [BUD19 C-terminal 12 aa]', 'protein stability index', 0.69);

###

protein stability index for assorted sequences
Test system: Saccharomyces cerevisiae
Test: protein stability index of tFT-peptide fusion (C-terminal peptide) (PSI (0-1 scale)); higher = more stable (slower turnover)
Details: genetic background: wild type; temperature: 30 C
measurement-type: protein stability index

INSERT INTO measurements (query_sequence, recorded_result) VALUES
  ('PPPHPALPHPLH', 0.682),
  ('EGVGRGCSGGCW', 0.713),
  ('DQDAPNRPVDSS', 0.695),
  ('PPPPFWPLSPAL', 0.713),
  ('SVDPIFLNSGLG', 0.693),
  ('LPRLHLSPASPP', 0.611),
  ('PPLPPPAPSFPT', 0.684);

###

Test system: Saccharomyces cerevisiae
Assay: protein stability index of tFT-peptide fusion (C-terminal peptide) (PSI (0-1 scale)); higher = more stable (slower turnover)
Settings: genetic background: cdc53-1; temperature: 37 C
measurement-type: protein stability index

INSERT INTO results (query_sequence, recorded_result) VALUES
  ('CSFPTFRSLLLL', 0.647),
  ('GTHWARLGWLLA', 0.711),
  ('VARRRQQWMRGS', 0.56),
  ('VCLFSVCLWFVS', 0.219);

###

Test system: Saccharomyces cerevisiae
Experiment: protein stability index of tFT-peptide fusion (C-terminal peptide) (PSI (0-1 scale)); higher = more stable (slower turnover)
Conditions: genetic background: wild type; temperature: 30 C
measurement-type: protein stability index

INSERT INTO results (query_sequence, recorded_result) VALUES
  ('YFRKDYRKMAQH', 0.163),
  ('SSGIGLFVWVYG', 0.268),
  ('FLIFGMVDFAVV', 0.226),
  ('FCALWLCFRLMV', 0.149),
  ('VRVLAALVLCVV', 0.189),
  ('YCCDYFMFVLVV', 0.183),
  ('KLMGWFVGVVAR', 0.351),
  ('PSRRLRHFATSP', 0.703),
  ('VRGAVGGWRLVG', 0.131),
  ('VQLLTRLKTPHP', 0.65),
  ('YFIVVSWFLVCW', 0.121),
  ('MFRSEVSWKLCC', 0.174),
  ('RVDVSVLWNRRS', 0.312),
  ('GLCFRVCIWVFV', 0.125),
  ('GKVSSFVLFHIS', 0.234);

###

Examples of sequences with documented protein stability index follow.
Tested on: Saccharomyces cerevisiae
Test: protein stability index of tFT-peptide fusion (C-terminal peptide) (PSI (0-1 scale)); higher = more stable (slower turnover)
Details: genetic background: doa10 deletion; temperature: 30 C
measurement-type: protein stability index

INSERT INTO assay_data (query_sequence, recorded_result) VALUES
  ('FGVVRVSIPVGV', 0.184),
  ('VFTGYSAFLLLC', 0.0796),
  ('WLKLWSYVTHLG', 0.303),
  ('PRHERPPRDNGH', 0.652),
  ('FFAFLRFFIFYW', 0.419),
  ('RMCEILGIRHLI', 0.137),
  ('YLCCFSVAFFLG', 0.131),
  ('KTRQLINKITQM', 0.137),
  ('SSGIGLFVWVYG', 0.226),
  ('GRVFSSFFLYIS', 0.14),
  ('LDHGRVVWVVVS', 0.174),
  ('APPFPSLSSFAP', 0.693),
  ('SPRSIALLHLFS', 0.154),
  ('SGPTIRRRLFVH', 0.148),
  ('RVITRMLLMVIR', 0.493),
  ('PGHICVPVLGTA', 0.307),
  ('FCMLCVVFLGSL', 0.358),
  ('CREFLQSMLFYC', 0.241),
  ('VLVWLRLRVGLR', 0.199),
  ('ERWSPWIVVFTN', 0.173),
  ('RCIRRWPYILKL', 0.214),
  ('FSFCFCFPLSSL', 0.209),
  ('TGGGGRVSLGGG', 0.374),
  ('PPPPPPPAPASP', 0.553),
  ('SPCSNFLECLSF', 0.626),
  ('LCWRLCRFWWVG', 0.255),
  ('ISATYSYIPVVG', 0.324),
  ('GGGEGVVWVRLG', 0.116),
  ('VCLVFLFQFVLI', 0.442),
  ('VFFLSFIFRFFL', 0.482),
  ('GAFAGDVWRCVV', 0.154),
  ('FWMLCFLCRLTV', 0.221),
  ('PPLLLFLSLAFL', 0.239),
  ('HYTSFAVPPLVY', 0.34),
  ('YPSASLLPLFSC', 0.126),
  ('YRFVWRWIPICA', 0.0307),
  ('LPSLRPPPCIRA', 0.332),
  ('FLSVLPLFAFFA', 0.219),
  ('GGGWGGRWGRLC', 0.193),
  ('FYACRLWLVSVR', 0.158),
  ('VVIYWFLPIIFA', 0.266),
  ('FVVFYFFLLFGV', 0.289),
  ('FLFIFFFFLISF', 0.344),
  ('APRPSYSLLALL', 0.375),
  ('LIIVFGFTSILR', 0.355),
  ('VFCFCRFHFFCA', 0.432),
  ('SGPCSPRNLRRL', 0.651),
  ('GGWSFSSLWKIA', 0.126);

###

Test system: Saccharomyces cerevisiae
Assay: protein stability index of tFT-peptide fusion (C-terminal peptide) (PSI (0-1 scale)); higher = more stable (slower turnover)
Details: genetic background: wild type; temperature: 30 C
measurement-type: protein stability index

INSERT INTO results (query_sequence, target_entity, recorded_result) VALUES
  ('IASNAENCDVGV', 'Saccharomyces cerevisiae', 0.695),
  ('PPLPPLLFRSPP', 'Saccharomyces cerevisiae', 0.687),
  ('PASLSPAVPESS', 'Saccharomyces cerevisiae', 0.719),
  ('FEAVDSLFMLVL', 'Saccharomyces cerevisiae', 0.686),
  ('PPRPLHPPCRPP', 'Saccharomyces cerevisiae', 0.702),
  ('RRLPPSRSAPFP', 'Saccharomyces cerevisiae', 0.698),
  ('AYRRPKFLEGTF', 'Saccharomyces cerevisiae', 0.694),
  ('LPPPLPSTRPVF', 'Saccharomyces cerevisiae', 0.694),
  ('KKKKKKTKKKNK', 'Saccharomyces cerevisiae', 0.719),
  ('GSVFVFWESWRC', 'Saccharomyces cerevisiae', 0.68),
  ('FFFFPLLSVPDR', 'Saccharomyces cerevisiae', 0.61),
  ('PLRGRRPIFPAP', 'Saccharomyces cerevisiae', 0.724),
  ('DLIYRLHTANWR', 'Saccharomyces cerevisiae', 0.809),
  ('GGKREGEACRQE', 'Saccharomyces cerevisiae', 0.662),
  ('GGCDVCGVQWIG', 'Saccharomyces cerevisiae', 0.73),
  ('PPRALPPPLPLP', 'Saccharomyces cerevisiae', 0.72),
  ('LFPGSHHLSRFF', 'Saccharomyces cerevisiae', 0.759),
  ('VFFFVSFFAFSS', 'Saccharomyces cerevisiae', 0.288),
  ('LLLLASLFFRLA', 'Saccharomyces cerevisiae', 0.3),
  ('GKTVRERWATRP', 'Saccharomyces cerevisiae', 0.651),
  ('LTNISKIKILRY', 'Saccharomyces cerevisiae', 0.653),
  ('GSNTTKRESQPH', 'Saccharomyces cerevisiae', 0.708),
  ('VAFFSVFYWLEC', 'Saccharomyces cerevisiae', 0.365),
  ('LLCLRGRVTLCP', 'Saccharomyces cerevisiae', 0.537),
  ('LFGAIPRVEHAD', 'Saccharomyces cerevisiae', 0.718),
  ('VVGCCVTKGGGA', 'Saccharomyces cerevisiae', 0.667),
  ('PQSVMFFGAPVW', 'Saccharomyces cerevisiae', 0.687),
  ('ALSPAPGTSLMR', 'Saccharomyces cerevisiae', 0.69),
  ('SDSSRRVFDVRR', 'Saccharomyces cerevisiae', 0.705),
  ('QRQPPEACPKNS', 'Saccharomyces cerevisiae', 0.747),
  ('GKHILLISLNIT', 'Saccharomyces cerevisiae', 0.351),
  ('PLPIPHASPTLA', 'Saccharomyces cerevisiae', 0.641),
  ('KDCGSVRQGLRY', 'Saccharomyces cerevisiae', 0.754),
  ('LSSPSPSCSLPP', 'Saccharomyces cerevisiae', 0.701),
  ('GDVGGLFYVSLL', 'Saccharomyces cerevisiae', 0.757),
  ('GIVFGMRKSDFK', 'Saccharomyces cerevisiae', 0.764),
  ('PYAPYRPQVDSS', 'Saccharomyces cerevisiae', 0.708),
  ('VAAFGGGRTNGV', 'Saccharomyces cerevisiae', 0.724),
  ('WGLCIGTGWALG', 'Saccharomyces cerevisiae', 0.708),
  ('IENREVNIVERT', 'Saccharomyces cerevisiae', 0.686),
  ('AALFNYVVCFCA', 'Saccharomyces cerevisiae', 0.358);
